target: ChoKα protein (Homo sapiens, UniProt P35790); construct: made in house; test: Binding affinity by surface plasmon resonance (SensiQ Pioneer, FastStep); conditions: SPR, 1:1 binding model, upper concentration 500 nM; read-out: Kd
Sequence (P35790 75-457): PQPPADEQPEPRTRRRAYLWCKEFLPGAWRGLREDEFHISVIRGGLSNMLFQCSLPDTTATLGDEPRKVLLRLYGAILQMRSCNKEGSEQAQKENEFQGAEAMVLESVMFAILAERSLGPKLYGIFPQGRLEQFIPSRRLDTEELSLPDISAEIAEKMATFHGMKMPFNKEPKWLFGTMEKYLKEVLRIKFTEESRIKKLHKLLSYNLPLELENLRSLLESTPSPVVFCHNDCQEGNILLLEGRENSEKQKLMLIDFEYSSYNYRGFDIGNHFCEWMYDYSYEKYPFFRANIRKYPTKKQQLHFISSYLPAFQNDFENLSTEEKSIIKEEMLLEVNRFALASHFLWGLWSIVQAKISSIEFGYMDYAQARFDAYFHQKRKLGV
pKd: −log10 of the molar value.
Below, each entry is listed alongside its reported pKd.
Recorded metric: pKd

> print(dat)
                                    molecule  result.value
 1  CN1CCCN(Cc2ccc(-c3ccc(S(N)(=O)=O)cc3)c(C#N)c2)CC1 [Example 87]        > 7.00
 2  CC(=O)NNC(=O)CCc1ccc(-c2ccc(CN3CCCN(C)CC3)cc2C#N)cc1 [Example 83]        > 7.30
 3  CN1CCCN(Cc2ccc(-c3ccc(C(=O)N4CCCN(C)CC4)cc3-c3cn[nH]c3)c(C#N)c2)CC1 [Example 71]        > 7.00
 4  CN1CCCN(Cc2ccc(-c3ccc(CN4CCCC(O)C4)cc3)c(C#N)c2)CC1 (centres unmarked) [Example 1]        > 7.00
 5  CN1CCCN(Cc2ccc(-c3ccc(C(=O)N4CCCN(C)CC4)cc3-c3ccc(O)cc3)c(C#N)c2)CC1 [Example 69]        > 7.30
 6  CN1CCCN(Cc2ccc(-c3ccc(CN4CCC(O)C4)cc3)c(C#N)c2)CC1 (centres unmarked) [Example 2]        > 7.30
 7  CN1CCCN(Cc2ccc(-c3ccc(NC(N)=O)cc3)c(C#N)c2)CC1 [Example 90]        > 6.70
 8  CN1CCCN(Cc2ccc(-c3ccc4cn[nH]c4c3)c(C#N)c2)CC1 [Example 89]        > 7.30
 9  CN1CCCN(Cc2ccc(-c3ccc(C(=O)N4CCCN(C)CC4)cc3)c(C#N)c2)CC1 [Example 33]        > 6.70
10  CNC(=O)c1ccc(-c2ccc(CN3CCCN(C)CC3)cc2C#N)cc1 [Example 29]        > 6.70
11  CN1CCCN(Cc2ccc(-c3ccc(NS(C)(=O)=O)cc3)c(C#N)c2)CC1 [Example 104]        > 7.30
12  CN1CCCN(Cc2ccc(-c3ccc(C(=O)N4CCCN(C)CC4)cc3-c3cc(F)cc(F)c3)c(C#N)c2)CC1 [Example 78]        > 7.30
13  CN1CCCN(Cc2ccc(-c3ccc4[nH]ncc4c3)c(C#N)c2)CC1 [Example 92]        > 7.30
14  CCN(CC)C(=O)c1ccc(-c2ccc(CN3CCCN(C)CC3)cc2C#N)cc1 [Example 27]        > 6.70
15  CN1CCCN(Cc2ccc(-c3ccc(S(=O)(=O)N4CCN(C)CC4)cc3)c(C#N)c2)CC1 [Example 84]        > 7.00
16  CNC(=O)Nc1ccc(-c2ccc(CN3CCCN(C)CC3)cc2C#N)cc1 [Example 114]        > 7.00
17  CNS(=O)(=O)c1ccc(-c2ccc(CN3CCCN(C)CC3)cc2C#N)cc1 [Example 86]        > 7.30

* * *

Below, each entry is listed alongside its reported IC50.
target: truncated form of human Choline kinase α1 that includes residues 75-457 (Homo sapiens, UniProt P35790); construct: made in house; assay: Kinase Assay, coupled (ATP regeneration) LDH/PK assay, NADH absorbance; type: biochemical; details: Examples not designated with an asterisk; footnote prints version 1 of the Kinase Assay; read-out: IC50
Recorded metric: IC50

> print(dat)
                                    molecule  result.value
 1  CN1CCCN(Cc2ccc(-c3ccc(CN4CCC(O)CC4)cc3)c(C#N)c2)CC1 [Example 4]      < 100 nM
 2  CNC(=O)NCc1ccc(-c2ccc(CN3CCCN(C)CC3)cc2C#N)cc1 [Example 47]      < 500 nM
 3  CN1CCCN(Cc2ccc(-c3ccc(C(=O)N4CCCN(C)CC4)cc3-c3ccccc3)c(C#N)c2)CC1 [Example 65]      < 500 nM
 4  CN1CCCN(Cc2ccc(-c3ccc(CO)cc3)c(C#N)c2)CC1 [Example 108]      < 500 nM
 5  COc1ccc(-c2cc(C(=O)N3CCCN(C)CC3)ccc2-c2ccc(CN3CCCN(C)CC3)cc2C#N)cc1 [Example 66]      < 100 nM
 6  CC(=O)N1CCN(c2ccc(-c3ccc(CN4CCCN(C)CC4)cc3)cn2)CC1 [Example 120]     < 2000 nM
 7  CN1CCCN(Cc2ccc(-c3ccc(C(=O)NN)cc3)c(C#N)c2)CC1 [Example 91]      < 200 nM
 8  CN1CCCN(Cc2ccc(-c3ccc(CN4CCNC(=O)C4)cc3)c(C#N)c2)CC1 [Example 7]      < 200 nM
 9  CC(=O)NNC(=O)CCc1ccc(-c2ccc(CN3CCCN(C)CC3)cc2)cc1 [Example 122]     < 2000 nM
10  CN1CCCN(Cc2ccc(-c3ccc(C(=O)N4CCCN(C)CC4)cc3-c3ccc([N+](=O)[O-])cc3)c(C#N)c2)CC1 [Example 73]      < 500 nM
11  CN1CCCN(Cc2ccc(-c3ccc(C(=O)NC4CC4)cc3)c(C#N)c2)CC1 [Example 32]      < 200 nM
12  CCN(CC)C1CCN(Cc2ccc(-c3ccc(CN4CCCN(C)CC4)cc3C#N)cc2)CC1 [Example 15]      < 100 nM
13  CNS(=O)(=O)c1ccc(-c2ccc(CN3CCCN(C)CC3)cc2C#N)c(C)c1 [Example 97]      < 200 nM
14  CCN(CC)C(=O)c1ccc(-c2ccc(CN3CCCN(C)CC3)cc2C#N)cc1 [Example 27]      < 200 nM
15  CN1CCCN(Cc2ccc(-c3ccc(CNS(C)(=O)=O)cc3)c(C#N)c2)CC1 [Example 48]      < 100 nM
16  CN1CCCN(Cc2ccc(-c3ccc(C#N)cc3)c(C#N)c2)CC1 [Example 105]      < 500 nM
17  CN1CCCN(Cc2ccc(-c3ccc(C(=O)N4CCCN(C)CC4)cc3-c3ccc(CC#N)cc3)c(C#N)c2)CC1 [Example 67]      < 500 nM
18  CN1CCCN(Cc2ccc(-c3ccc(C(=O)N4CCCN(C)CC4)cc3)c(C#N)c2)CC1 [Example 33]      < 200 nM
19  CN1CCCN(Cc2ccc(-c3ccc(CN4CCC(O)C4)cc3)c(C#N)c2)CC1 (stereo not shown) [Example 2]      < 100 nM
20  CN1CCCN(Cc2ccc(-c3ccc(S(=O)(=O)NCCO)cc3)c(C#N)c2)CC1 [Example 85]      < 100 nM
21  CN1CCCN(Cc2ccc(-c3ccc(CN4CCN(C)CC4)cc3)c(C#N)c2)CC1 [Example 11]      < 200 nM
22  CN1CCCN(Cc2ccc(-c3cnc(N)nc3)c(C#N)c2)CC1 [Example 119]     < 2000 nM
23  CN1CCCN(Cc2ccc(-c3ccc(C(=O)N4CCCN(C)CC4)cc3-c3ccc(C(=O)N(C)C)cc3)c(C#N)c2)CC1 [Example 76]     < 2000 nM
24  CC(=O)NS(=O)(=O)c1ccc(-c2ccc(CN3CCCN(C)CC3)cc2C#N)cc1 [Example 109]      < 500 nM
25  Cc1cc(-c2ccc(CN3CCCN(C)CC3)cc2C#N)cnc1N [Example 118]     < 2000 nM
26  CN1CCCN(Cc2ccc(-c3cc[nH]c3)c(C#N)c2)CC1 [Example 117]     < 2000 nM
27  CN1CCCN(Cc2ccc(-c3ccc(CN4CCCN(C)CC4)cc3[N+](=O)[O-])cc2)CC1 [Example 57]      < 100 nM
28  CN1CCCN(Cc2ccc(-c3ccc(CN4CCOCC4)cc3)c(C#N)c2)CC1 [Example 9]      < 200 nM
29  CC(=O)N1CC=C(c2ccc(CN3CCCN(C)CC3)cc2C#N)CC1 [Example 103]      < 500 nM
30  CN1CCCN(Cc2ccc(-c3ccc4[nH]ncc4c3)c(C#N)c2)CC1 [Example 92]      < 100 nM
31  Cc1cc(C(=O)N2CCCN(C)CC2)ccc1-c1ccc(CN2CCCN(C)CC2)cc1C#N [Example 60]     < 2000 nM
